System: HCT-116 colon
protocol text: NCI tumour cell line growth inhibition, 48 h; in the data active = GI50 below about 0.43 µM; inactive = the rest
Outcomes: y (active), n (inactive)

| compound | tested target | label value |
| --- | --- | --- |
| CCN(CC)c1ccc(/C=N/NC(=O)Cc2ccc(Nc3ccnc(C(F)(F)F)c3)cc2)c(O)c1 | HCT-116 colon | n |
| COc1cc2c(c(OC)c1OC)-c1cc(I)c(O)cc1[C@@H](NC(C)=O)CC2 | HCT-116 colon | y |
| COc1cc(N=Nc2cc(Cc3ccc(N(C)C)cc3)c(N)cc2N(C)C)c2ncccc2c1 | HCT-116 colon | y |
| CC1(C)N=C(N)N=C(N)N1c1ccc(CCCC(=O)Nc2ccc(S(=O)(=O)F)cc2)cc1 | HCT-116 colon | n |
| CC1[C@@]2(CCC(C)(C)O2)O[C@@H]2C=C3C4CCC5Cc6nc7c(nc6C[C@@]5(C)C4C[C@H](O)[C@@]3(C)[C@]12O)CC1CCC2C3=C[C@H]4O[C@@]5(O[C@@](C)(CO)C[C@@H]5O)C(C)[C@@]4(O)[C@]3(C)[C@@H](O)CC2[C@]1(C)C7 (stereo partly drawn) | HCT-116 colon | y |
| Clc1ccc2c(NCCNc3nc(N4CCOCC4)nc4ccccc34)ccnc2c1 | HCT-116 colon | n |
| CCN(CC)CCOC(COc1cc(C)cc(C)c1)COc1cc(C)cc(C)c1 | HCT-116 colon | n |
| CC(C)=C[C@@H]1C[C@H](C)[C@H]2CC[C@H](C)c3c(O)c(OC4OC(C)C(O)C(O)C4O)c(C)c1c32 (stereo partly drawn) | HCT-116 colon | n |

###

TGI values, listed per item
Tested on: SF-539 CNS
protocol text: NCI tumour cell line growth inhibition, 48 h

| molecule | TGI |
| --- | --- |
| O=P(CN1CCOCC1)(c1ccccc1)c1ccccc1 | > 100 µM |
| OCCc1ccsc1-c1sc(-c2cc(CCO)c(-c3sc(-c4cc(CCO)c(-c5sccc5CCO)s4)cc3CCO)s2)cc1CCO | 2.95 µM |
| CC(=O)O[C@H]1[C@@H](N2CCOCC2)C[C@H]2[C@@H]3CC=C4C[C@@H](N5CCCC5)CC[C@]4(C)[C@H]3CC[C@@]21C | > 100 µM |
| CCN(CC)c1c(C(C)(C)C)c(=O)n2ccsc2c1OC(C)=O | 33.3 µM |
| NC(Cc1ccccc1)C(=O)OCN1C(=O)C2C3C=CC(C2C1=O)C1C(=O)N(COC(=O)C(N)Cc2ccccc2)C(=O)C31 (stereo unspecified) | > 100 µM |
| COCN1C(=O)[C@@H]2CCCN2C(=O)c2ccc(N)cc21 | > 100 µM |
| Clc1ccc(C=Nc2ccc(-c3nc4ccccc4[nH]3)cc2)cc1 | > 100 µM |
| CNC(=O)CCN1CCN(CC/C=C2\c3ccccc3Sc3ccc(Cl)cc32)CC1 | 25.6 µM |
| C[N+](C)(CCNc1ccc(NCC[N+](C)(C)Cc2ccc([N+](=O)[O-])cc2)c2c1C(=O)c1c(O)ccc(O)c1C2=O)Cc1ccc([N+](=O)[O-])cc1 | > 50 µM |
| O=[N+]([O-])c1cccc(/C=N/Nc2ccc3ccccc3n2)c1O | 8.91 µM |
| ClC1=NSSC1(Cl)Cl | > 100 µM |
| CCOC(=O)Cc1c(C(=O)OCC)[n+](=O)c2cc(Cl)c(Cl)cc2n1[O-] | 5.44 µM |
| COC(=O)c1ccccc1CC1Cc2c(C)ccc(C)c2C1=O (stereo unspecified) | > 100 µM |
| O=S(=O)(c1ccccc1)N1CCCC(c2ccccc2)CC1 (stereo unspecified) | > 100 µM |
| CC1(C)N=C(C(N)=O)c2[nH]cnc2N1 | > 100 µM |
| O=C1CCC(c2ccccc2)=NN1c1nc2ccccc2s1 | > 63.7 µM |
| COC1OC2COC(=O)c3cc(O)c(O)c(O)c3-c3c(cc(O)c(O)c3O)C(=O)OC2C(O)C1O (stereo unspecified) | > 100 µM |
| CO[C@@]12C[C@H](CNC(=O)c3ccc[nH]3)O[C@@H]1NC(=O)N2 | > 100 µM |
| CC(C)c1cc(=O)[nH]c2cc(N)ccc12 | > 100 µM |
| CCCN1C(=O)/C(=C/c2ccc(SC(F)(F)F)cc2)SC1=Nc1ccc(OC)cc1 | 21.6 µM |
| O=C1c2cc3c(cc2NC(c2ccccc2F)C1O)OCO3 (stereo unspecified) | 35.2 µM |

The reported measurements were obtained from PubChem BioAssay (NCI).
